# protocol-text: Inhibition of reverse transcriptase L100I mutant in HIV-1 3B infected in human MT4 cells assessed as reduction in virus-induced cytopathic effect incubated for 5 days by MTT assay
parameter-measured: pEC50
Scale for pEC50: -log10 of concentration given in mol/L; no unit attached.

Sample records with pEC50:
>  <compound>
N#Cc1ccc(Nc2nccc(C(O)c3c(F)cc(-c4ccc(C#N)cc4)cc3F)n2)cc1 (centres undefined)

>  <observed-measurement>
6.39

$$$$
>  <compound>
COc1cc(-c2ccc(C#N)cc2)ccc1[C@H](O)c1ccnc(Nc2ccc(C#N)cc2)n1

>  <observed-measurement>
7.17

$$$$
>  <compound>
N#Cc1ccc(Nc2nccc([C@@H](O)c3ccc(-c4ccc(C#N)cc4)cc3F)n2)cc1

>  <observed-measurement>
6.42

$$$$
>  <compound>
N#Cc1ccc(Nc2nccc([C@H](O)c3c(F)cc(-c4ccc(C#N)cc4)cc3F)n2)cc1

>  <observed-measurement>
5.84

$$$$

So for COc1cc(-c2ccc(C#N)cc2)ccc1C(O)c1ccnc(Nc2ccc(C#N)cc2)n1 (centres undefined) , the logged pEC50 turned out to be 6.95

So for N#Cc1ccc(Nc2nccc([C@@H](O)c3ccc(-c4ccc(C#N)cc4)cc3C(F)(F)F)n2)cc1 , the logged pEC50 turned out to be 7.03

So for Cc1cc(-c2ccc(C#N)cc2)cc(C)c1[C@@H](O)c1ccnc(Nc2ccc(C#N)cc2)n1 , the logged pEC50 turned out to be 6.78

So for N#Cc1ccc(Nc2nccc([C@H](O)c3ccc(-c4ccc(C#N)cc4)cc3Cl)n2)cc1 , the logged pEC50 turned out to be 5.80

So for Cc1cc(-c2ccc(C#N)cc2)ccc1C(O)c1ccnc(Nc2ccc(C#N)cc2)n1 (centres undefined) , the logged pEC50 turned out to be 6.74

====

# protocol-text: Inhibition of reverse transcriptase E138K mutant in HIV-1 3B infected in human MT4 cells assessed as reduction in virus-induced cytopathic effect incubated for 5 days by MTT assay
// class assignment uses EC50 with these ranges: label 0: < 9 nM; label 1: ≥ 9 nM and < 30 nM; label 2: ≥ 30 nM

>  <compound>
Cc1cc(-c2ccc(C#N)cc2)ccc1[C@@H](O)c1ccnc(Nc2ccc(C#N)cc2)n1

>  <assigned-class>
label 2

$$$$
>  <compound>
Cc1cc(-c2ccc(C#N)cc2)ccc1[C@H](O)c1ccnc(Nc2ccc(C#N)cc2)n1

>  <assigned-class>
label 0

$$$$

Next compound, please.
**Query** Into which bin does this compound go? Cc1cc(-c2ccc(C#N)cc2)ccc1C(O)c1ccnc(Nc2ccc(C#N)cc2)n1 (stereo not given)
**Result** label 1

====

# protocol-text: Inhibition of reverse transcriptase K103N mutant in HIV-1 3B infected in human MT4 cells assessed as reduction in virus-induced cytopathic effect incubated for 5 days by MTT assay
# EC50 listing for each entry below
Please answer in the form of a number followed by its unit of measurement.

>  <compound>
Cc1cc(-c2ccc(C#N)cc2)ccc1C(O)c1ccnc(Nc2ccc(C#N)cc2)n1 (centres undefined)

>  <EC50>
18 nM

$$$$
>  <compound>
N#Cc1ccc(Nc2nccc(C(O)c3ccc(-c4ccc(C#N)cc4)cc3F)n2)cc1 (centres undefined)

>  <EC50>
88 nM

$$$$
>  <compound>
N#Cc1ccc(Nc2nccc(C(O)c3ccc(-c4ccc(C#N)cc4)cc3C(F)(F)F)n2)cc1 (centres undefined)

>  <EC50>
26 nM

$$$$
>  <compound>
N#Cc1ccc(Nc2nccc([C@H](O)c3ccc(-c4ccc(C#N)cc4)cc3F)n2)cc1

>  <EC50>
736 nM

$$$$
>  <compound>
N#Cc1ccc(Nc2nccc([C@@H](O)c3ccc(-c4ccc(C#N)cc4)cc3C(F)(F)F)n2)cc1

>  <EC50>
15 nM

$$$$
>  <compound>
N#Cc1ccc(Nc2nccc([C@H](O)c3ccc(-c4ccc(C#N)cc4)cc3C(F)(F)F)n2)cc1

>  <EC50>
1910 nM

$$$$
>  <compound>
Cc1cc(-c2ccc(C#N)cc2)cc(C)c1[C@@H](O)c1ccnc(Nc2ccc(C#N)cc2)n1

>  <EC50>
21 nM

$$$$
>  <compound>
COc1cc(-c2ccc(C#N)cc2)ccc1[C@H](O)c1ccnc(Nc2ccc(C#N)cc2)n1

>  <EC50>
6.7 nM

$$$$

Note: attention shifts to another entry.
So for Cc1cc(-c2ccc(C#N)cc2)ccc1[C@@H](O)c1ccnc(Nc2ccc(C#N)cc2)n1 , the logged EC50 turned out to be 479 nM
